- Target: Neuraminidase (Influenza A virus (A/Puerto Rico/8/1934(H1N1)))
- Procedure summary: Inhibitory activity against influenza A neuraminidase from influenza A/PR/8/34 (H1N1).

{"columns": ["Line notation", "Target", "IC50"],
 "data": [
  ["CC[C@H](C)O[C@@H]1C=C(C(=O)O)C[C@H](N)[C@H]1NC(C)=O", "Neuraminidase (Influenza A virus (A/Puerto Rico/8/1934(H1N1)))", "9 nM"],
  ["CC(=O)N[C@@H]1[C@@H](N)CC(C(=O)O)=C[C@H]1OC(Cc1ccccc1)Cc1ccccc1", "Neuraminidase (Influenza A virus (A/Puerto Rico/8/1934(H1N1)))", "> 1000 nM"],
  ["CCC(CC)O[C@@H]1C(C)=C(C(=O)O)C[C@H](N)[C@H]1NC(C)=O", "Neuraminidase (Influenza A virus (A/Puerto Rico/8/1934(H1N1)))", "2300 nM"],
  ["CCCCCO[C@@H]1C=C(C(=O)O)C[C@H](N)[C@H]1NC(C)=O", "Neuraminidase (Influenza A virus (A/Puerto Rico/8/1934(H1N1)))", "200 nM"],
  ["CC(=O)N[C@@H]1[C@@H](N)CC(C(=O)O)=C[C@H]1OCc1ccccc1", "Neuraminidase (Influenza A virus (A/Puerto Rico/8/1934(H1N1)))", "620 nM"],
  ["CCCCCCC[C@H](CC)O[C@@H]1C=C(C(=O)O)C[C@H](N)[C@H]1NC(C)=O", "Neuraminidase (Influenza A virus (A/Puerto Rico/8/1934(H1N1)))", "1 nM"],
  ["CCCO[C@@H]1C=C(C(=O)O)C[C@H](N=C(N)N)[C@H]1NC(C)=O", "Neuraminidase (Influenza A virus (A/Puerto Rico/8/1934(H1N1)))", "2 nM"],
  ["CCCCO[C@@H]1C=C(C(=O)O)C[C@H](N)[C@H]1NC(C)=O", "Neuraminidase (Influenza A virus (A/Puerto Rico/8/1934(H1N1)))", "300 nM"],
  ["CC[C@@H](CCc1ccccc1)O[C@@H]1C=C(C(=O)O)C[C@H](N)[C@H]1NC(C)=O", "Neuraminidase (Influenza A virus (A/Puerto Rico/8/1934(H1N1)))", "0.3 nM"]
]}

###

Listing of recorded log10 of IC50 by entry.
- Target: Neuraminidase (Influenza A virus (A/Puerto Rico/8/1934(H1N1)), UniProt P03468)
- Sequence (P03468 whole entry): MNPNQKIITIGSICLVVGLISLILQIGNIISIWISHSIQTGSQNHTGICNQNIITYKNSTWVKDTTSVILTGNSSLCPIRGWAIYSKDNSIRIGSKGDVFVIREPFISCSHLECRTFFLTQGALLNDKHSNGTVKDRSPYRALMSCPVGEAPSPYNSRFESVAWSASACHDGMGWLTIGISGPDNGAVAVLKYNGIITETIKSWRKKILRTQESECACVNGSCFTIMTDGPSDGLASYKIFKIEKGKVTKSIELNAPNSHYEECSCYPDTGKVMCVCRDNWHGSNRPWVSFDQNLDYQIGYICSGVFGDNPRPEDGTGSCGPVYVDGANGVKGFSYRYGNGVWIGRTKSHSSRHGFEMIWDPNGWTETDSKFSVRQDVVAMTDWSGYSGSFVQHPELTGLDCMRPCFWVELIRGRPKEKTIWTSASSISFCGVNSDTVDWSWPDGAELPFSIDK
- Procedure summary: Inhibitory activity against influenza A neuraminidase from influenza A/PR/8/34 (H1N1).
Readout type: log10 of IC50 (log10 of the value in nM)

{"columns": ["Compound", "log10 of IC50"],
 "data": [
  ["CCC(CC)O[C@@H]1C=C(C(=O)O)[C@@H](C)[C@H](N)[C@H]1NC(C)=O", 3.18],
  ["CC[C@@H](C)O[C@@H]1C=C(C(=O)O)C[C@H](N)[C@H]1NC(C)=O", 1.00],
  ["CC(=O)N[C@@H]1[C@@H](N)CC(C(=O)O)=C[C@H]1OCCCc1ccc(-c2ccccc2)cc1", 1.95],
  ["CC[C@@H](CC1CCCCC1)O[C@@H]1C=C(C(=O)O)C[C@H](N)[C@H]1NC(C)=O", 1.20],
  ["CC[C@@H](C)O[C@@H]1C=C(C(=O)O)C[C@H](NC(=N)N)[C@H]1NC(C)=O (stereo in doubt; 61)", -0.30],
  ["CCCO[C@@H]1C=C(C(=O)O)C[C@H](N)[C@H]1NC(C)=O", 2.26],
  ["CCC(CC)O[C@@H]1C(F)=C(C(=O)O)C[C@H](N)[C@H]1NC(C)=O", 0.48],
  ["CC[C@H](CCc1ccccc1)O[C@@H]1C=C(C(=O)O)C[C@H](N)[C@H]1NC(C)=O", 1.08],
  ["CCCCCCCCO[C@@H]1C=C(C(=O)O)C[C@H](N)[C@H]1NC(C)=O", 2.26],
  ["CCCCCCCO[C@@H]1C=C(C(=O)O)C[C@H](N)[C@H]1NC(C)=O", 2.43],
  ["CCCCCCO[C@@H]1C=C(C(=O)O)C[C@H](N)[C@H]1NC(C)=O", 2.18],
  ["CC(=O)N[C@H]1[C@H](O)C=C(C(=O)O)C[C@@H]1N", 3.80],
  ["CCCCCCCCCCO[C@@H]1C=C(C(=O)O)C[C@H](N)[C@H]1NC(C)=O", 2.78],
  ["CO[C@@H]1C=C(C(=O)O)C[C@H](N)[C@H]1NC(C)=O", 3.57],
  ["CCO[C@@H]1C=C(C(=O)O)C[C@H](N)[C@H]1NC(C)=O", 3.30],
  ["CC[C@@H](CCC1CCCCC1)O[C@@H]1C=C(C(=O)O)C[C@H](N)[C@H]1NC(C)=O", 0.00],
  ["CCCCCCCCCO[C@@H]1C=C(C(=O)O)C[C@H](N)[C@H]1NC(C)=O", 2.32],
  ["CCCCO[C@@H]1C=C(C(=O)O)C[C@H](N=C(N)N)[C@H]1NC(C)=O", 0.48],
  ["CC(=O)N[C@@H]1[C@@H](N)CC(C(=O)O)=C[C@H]1OCC(C)C", 2.30],
  ["CC(=O)N[C@H]1[C@H](O)C=C(C(=O)O)C[C@@H]1N=C(N)N", 2.00]
]}
